Examples of molecules with documented remaining at 0.5 h follow.
Assay: Photostability after irradiation with white light at the fluence rate of 50 mW/cm2 for 30 mins
Assay type: ADME
Conditions: read-out: Stability

CHEMICAL STRUCTURE	remaining at 0.5 h [%]
O=C(O)c1ccc(-c2c3nc(c(-c4ccncc4)c4ccc([nH]4)c(-c4ccncc4)c4nc(c(-c5ccncc5)c5ccc2[nH]5)C=C4)C=C3)cc1	85
C[n+]1ccc(-c2c3nc(c(-c4cc[n+](C)cc4)c4ccc([nH]4)c(-c4cc[n+](C)cc4)c4nc(c(-c5ccc(C(=O)O)cc5)c5ccc2[nH]5)C=C4)C=C3)cc1.[I-].[I-].[I-]	67

###

Assay: Photostability after irradiation with white light at the fluence rate of 50 mW/cm2 for 10 mins
Assay type: ADME
Conditions: read-out: Stability
Examples of molecules with documented remaining at 10 min follow.
PROPERTY MEASURED: remaining at 10 min (%)

CHEMICAL STRUCTURE	REPORTED VALUE
C[n+]1ccc(-c2c3nc(c(-c4cc[n+](C)cc4)c4ccc([nH]4)c(-c4cc[n+](C)cc4)c4nc(c(-c5ccc(C(=O)O)cc5)c5ccc2[nH]5)C=C4)C=C3)cc1.[I-].[I-].[I-]	77
O=C(O)c1ccc(-c2c3nc(c(-c4ccncc4)c4ccc([nH]4)c(-c4ccncc4)c4nc(c(-c5ccncc5)c5ccc2[nH]5)C=C4)C=C3)cc1	94

###

Examples of molecules with documented remaining at 1 min follow.
Assay: Photostability after irradiation with white light at the fluence rate of 50 mW/cm2 for 1 min
Assay type: ADME
Conditions: read-out: Stability

CHEMICAL STRUCTURE	remaining at 1 min (%)
O=C(O)c1ccc(-c2c3nc(c(-c4ccncc4)c4ccc([nH]4)c(-c4ccncc4)c4nc(c(-c5ccncc5)c5ccc2[nH]5)C=C4)C=C3)cc1	99
C[n+]1ccc(-c2c3nc(c(-c4cc[n+](C)cc4)c4ccc([nH]4)c(-c4cc[n+](C)cc4)c4nc(c(-c5ccc(C(=O)O)cc5)c5ccc2[nH]5)C=C4)C=C3)cc1.[I-].[I-].[I-]	93

From: ChEMBL document CHEMBL1149289
